- STUDY_TARGET: Inadl_3, Q8NI35
- Sequence (Q8NI35 359-469): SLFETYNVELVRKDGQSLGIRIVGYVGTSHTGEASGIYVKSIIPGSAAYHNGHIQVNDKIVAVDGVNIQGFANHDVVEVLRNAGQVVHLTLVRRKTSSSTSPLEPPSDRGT
- MEASUREMENT_DESCRIPTION: holdup assay
- Set-up: key: below the threshold = too weak to quantify, mostly under pKd 3.1 to 4
- TEST_PARAMETERS: plain residues with an end cap or a label only (N-terminal biotin on a linker: ttds)

BINDER	pKd
PFRSRSPSEV [GPR6, P46095]	below the threshold
PSRDRKETSI [RALBP1, Q15311]	below the threshold
SHSSKGETAV [FZD7, O75084]	below the threshold
GRLLGLETNV [ARHGEF26, Q96DR7]	3.58
SRSRRRETAL [HPV33-E6, P06427]	below the threshold
KQVVPFSSSV [GDA, Q9Y2T3]	below the threshold
QRPYRRESEI [KCNJ12, Q14500]	below the threshold
DLDEEEDTHL [PODXL, O00592]	below the threshold
NPDALPETLV [ARHGAP6, O43182]	4.36
SGGKRKETLV [NET1, Q7Z628]	below the threshold
SSIDLWETAL [SLC15A5, A6NIM6]	4.66
FVETQHQTQV [FAT3, Q8TDW7]	below the threshold
KLVIKTETTV [RASSF6, Q6ZTQ3]	below the threshold
PPRQRSETQV [HPV82-E6, Q9IR59]	below the threshold
GARVSKETPL [MAPK12, P53778]	below the threshold
